- ASSAY_COMMENT: chemical genetic growth profiling, strain panel (AID 1159580);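 note: tested at 20 µM; growth read once vehicle control cultures reached saturation at 30 °C; 1 = growth at the plate median or of vehicle wells; lower values mean less growth of the strain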
- CONDITION_LABEL: S. cerevisiae deletion strains, growth OD, locus YBR009C, strain hhf1
Out of some 5,500 compounds screened, about 2,000 (36%) were called active. Another 18% or so got no clear call; they are omitted. Cut-off read from the data, not from the text of the source: active = normalized growth mostly below about 0.91 (no sharp cut-off); inconclusive = no clear call, values can overlap the other calls; inactive = mostly above about 0.92. The list shows a part of the results.
Returns: one label drawn from class 1 (active), class 0 (inactive)

Please review the entries below; each comes with its answer.
C=CC(C1=CC(=O)C(OC)=CC1=O)c1ccc(OC)cc1 (stereo unspecified) | class 1
C[n+]1cccc(C(=O)[O-])c1 | class 0
C=CC(C1=CC(=O)C=CC1=O)c1ccccc1 (stereo unspecified) | class 0
CN(C)CCOc1ccc(/C(=C(/CCCl)c2ccccc2)c2ccccc2)cc1 | class 1

query: Fill in: this test's call for C=C[C@@H](C1=CC(=O)C(OC)=C(OC)C1=O)c1ccccc1 is ___
result: class 1

query: Fill in: this test's call for CC(=O)Nc1ccc(S(=O)(=O)c2ccc(NC(C)=O)cc2)cc1 is ___
result: class 0
